# Tested on: CAKI-1
# Test: NCI tumour cell line growth inhibition, 48 h
Calls of active or inactive are those of the source. Rule as the data show it: active = GI50 up to about 1.1 µM and inactive = higher.
Outcome (select one): active, inactive

What call does the record list for `C/C(=N/NC(=S)N1CC2CCC(CC2)C1)c1cnccn1` ?
active

Give the logged outcome of this assay for the following compound: `Clc1ccc(/C=N/c2ccc3c(c2)Cc2ccccc2-3)c(Cl)c1`
inactive

Tell me the recorded outcome of this test for Nc1nc(=O)n(C2CC(O)C(CO)O2)c2nc(-c3ccc(-c4ccccc4)cc3)cnc12 (stereo not given) .
inactive

// param item: Nc1nc2c(c(=O)[n-]1)[n+](CCO)cn2C1OC(CO)C(O)C1O (stereo not given) ; yields the recorded call
inactive

Write down the call the test reported for this compound. Item: CCCCCC[C@@H]1CCC2C(CO)[C@@H](O)CC[C@@H]2C1 (stereo not given in full)
inactive
